# System: CYP3A4
# experimental.details: CYP induction, CYP3A4 mRNA expression
# Format: in vitro ADME
# recorded.conditions: human; @ 50 μM; mean fold shift compared to vehicle; read-out: Fold shift in mRNA expr. (CYP 3A4)
Item-by-item account of CYP3A4 mRNA fold induction vs vehicle at 50 μM

Provide measured CYP3A4 mRNA fold induction vs vehicle at 50 μM value, entry: CNc1cc2c(cn1)nc([C@@H](C)O)n2[C@H]1CC[C@H](CC#N)CC1
2

Provide measured CYP3A4 mRNA fold induction vs vehicle at 50 μM value, entry: C[C@@H](O)c1nc2cnc3[nH]ccc3c2n1[C@H]1CC[C@H](C#N)CC1
4

* * *

pIC50 data for CYP3A4 (Homo sapiens (Human), UniProt P08684) follow.
Entry type: numeric. Quantity: pIC50, the -log10 of concentration in molar units.

# return pIC50 for C[C@@H](O)c1nc2cnc3[nH]ccc3c2n1[C@H]1CC[C@H](CC#N)CC1 , test system: CYP3A4 (Homo sapiens (Human), UniProt P08684)
# Sequence (P08684 whole entry): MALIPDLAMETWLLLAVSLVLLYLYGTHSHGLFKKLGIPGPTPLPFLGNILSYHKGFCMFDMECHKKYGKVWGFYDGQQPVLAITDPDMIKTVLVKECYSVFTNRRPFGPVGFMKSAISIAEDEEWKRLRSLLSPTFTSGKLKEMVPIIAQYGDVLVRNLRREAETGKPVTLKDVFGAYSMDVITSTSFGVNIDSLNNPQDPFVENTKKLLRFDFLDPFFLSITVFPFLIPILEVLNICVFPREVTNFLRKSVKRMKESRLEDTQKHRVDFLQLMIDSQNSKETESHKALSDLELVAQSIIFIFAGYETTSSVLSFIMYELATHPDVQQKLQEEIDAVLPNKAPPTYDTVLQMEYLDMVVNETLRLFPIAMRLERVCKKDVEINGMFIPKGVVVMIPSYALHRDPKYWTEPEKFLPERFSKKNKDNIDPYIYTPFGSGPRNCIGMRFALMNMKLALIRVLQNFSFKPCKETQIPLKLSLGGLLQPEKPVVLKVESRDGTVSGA
4.97

Now turn to the next compound.
# return pIC50 for C[C@@H](O)c1nc2cnc3[nH]ccc3c2n1[C@H]1CC[C@H](C#N)CC1 , test system: CYP3A4 (Homo sapiens (Human), UniProt P08684)
4.96

* * *

# subject.of.test: JAK1 (Homo sapiens (Human), UniProt P23458)
# Sequence (P23458 850-1154): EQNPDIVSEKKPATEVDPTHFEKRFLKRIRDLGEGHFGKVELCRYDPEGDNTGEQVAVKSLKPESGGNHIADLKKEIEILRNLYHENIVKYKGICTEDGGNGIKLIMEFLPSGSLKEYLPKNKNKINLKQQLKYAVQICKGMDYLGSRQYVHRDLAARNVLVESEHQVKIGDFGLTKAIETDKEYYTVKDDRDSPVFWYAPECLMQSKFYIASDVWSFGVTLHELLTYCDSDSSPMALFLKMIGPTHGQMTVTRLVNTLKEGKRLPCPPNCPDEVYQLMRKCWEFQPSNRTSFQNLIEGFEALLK
# experimental.details: JAK1 kinase assay (HTRF)
# Type: biochemical
# recorded.conditions: ratio of the respective EC50
reported.metric: JAK3/JAK1 ratio

# return JAK3/JAK1 ratio for CNc1cc2c(cn1)nc(C(C)O)n2[C@H]1CC[C@H](CC#N)CC1 (some centres unmarked) [Example 1] , test system: JAK1 (Homo sapiens (Human), UniProt P23458)
487

# return JAK3/JAK1 ratio for [2H]C([2H])([2H])C([2H])(O)c1nc2cnc(NC)cc2n1[C@H]1CC[C@H](CC#N)CC1 (some centres unmarked) [Example 5] , test system: JAK1 (Homo sapiens (Human), UniProt P23458)
380

# return JAK3/JAK1 ratio for [2H]C([2H])([2H])Nc1cc2c(cn1)nc([C@@H](C)O)n2[C@H]1CC[C@H](CC#N)CC1 [Example 4] , test system: JAK1 (Homo sapiens (Human), UniProt P23458)
668

# return JAK3/JAK1 ratio for CNc1cc2c(cn1)nc(C(C)O)n2[C@H]1CC[C@@H](CC#N)CC1 (some centres unmarked) [Example 6] , test system: JAK1 (Homo sapiens (Human), UniProt P23458)
5.6

# return JAK3/JAK1 ratio for CNc1cc2c(cn1)nc([C@@H](C)O)n2[C@H]1CC[C@H](CC#N)CC1 [Example 3] , test system: JAK1 (Homo sapiens (Human), UniProt P23458)
489

# return JAK3/JAK1 ratio for C[C@@H](O)c1nc2cnc3[nH]ccc3c2n1[C@H]1CC[C@H](C#N)CC1 [Example 641 of WO2011086053] , test system: JAK1 (Homo sapiens (Human), UniProt P23458)
109

# return JAK3/JAK1 ratio for CNc1cc2c(cn1)nc([C@H](C)O)n2[C@H]1CC[C@H](CC#N)CC1 [Example 2] , test system: JAK1 (Homo sapiens (Human), UniProt P23458)
221

Next:
# return JAK3/JAK1 ratio for CNc1cc2c(cn1)nc([C@@H](C)O)n2[C@H]1CC[C@@H](CC#N)CC1 [Example 7] , test system: JAK1 (Homo sapiens (Human), UniProt P23458)
7.8

* * *

# Test system: CYP3A4
# experimental.details: CYP induction, CYP3A4 mRNA expression
# Type: in vitro ADME
# recorded.conditions: human; @ 20 μM; mean fold shift compared to vehicle; read-out: Fold shift in mRNA expr. (CYP 3A4)
reported.metric: CYP3A4 mRNA fold induction vs vehicle at 20 μM
// response body must contain only the number

Provide measured CYP3A4 mRNA fold induction vs vehicle at 20 μM value, entry: CNc1cc2c(cn1)nc([C@@H](C)O)n2[C@H]1CC[C@H](CC#N)CC1
1.5

Now turn to the next compound.
Provide measured CYP3A4 mRNA fold induction vs vehicle at 20 μM value, entry: C[C@@H](O)c1nc2cnc3[nH]ccc3c2n1[C@H]1CC[C@H](C#N)CC1
2.5

* * *

IC50 data for UniProtKB P10635 follow.
Sequence (P10635 whole entry): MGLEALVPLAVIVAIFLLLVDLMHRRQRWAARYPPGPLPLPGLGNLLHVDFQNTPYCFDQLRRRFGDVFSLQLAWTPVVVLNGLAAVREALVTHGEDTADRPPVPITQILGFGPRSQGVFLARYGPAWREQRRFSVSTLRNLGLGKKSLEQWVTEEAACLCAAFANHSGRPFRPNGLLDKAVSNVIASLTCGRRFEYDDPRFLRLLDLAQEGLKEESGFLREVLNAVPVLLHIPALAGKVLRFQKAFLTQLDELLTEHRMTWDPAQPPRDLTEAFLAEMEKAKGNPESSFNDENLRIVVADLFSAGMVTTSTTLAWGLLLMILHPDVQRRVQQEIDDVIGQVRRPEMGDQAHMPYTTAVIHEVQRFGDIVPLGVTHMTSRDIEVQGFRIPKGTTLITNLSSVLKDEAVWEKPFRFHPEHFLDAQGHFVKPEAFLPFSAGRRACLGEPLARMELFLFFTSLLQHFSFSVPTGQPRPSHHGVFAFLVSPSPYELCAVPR

Some solved entries appear below for comparison.
# return IC50 for CNc1cc2c(cn1)nc([C@@H](C)O)n2[C@H]1CC[C@H](CC#N)CC1 , test system: UniProtKB P10635
> 50 µM

# return IC50 for C[C@@H](O)c1nc2cnc3[nH]ccc3c2n1[C@H]1CC[C@H](CC#N)CC1 , test system: UniProtKB P10635
> 25 µM

Now turn to the next molecule.
# return IC50 for C[C@@H](O)c1nc2cnc3[nH]ccc3c2n1[C@H]1CC[C@H](C#N)CC1 , test system: UniProtKB P10635
> 25 µM

* * *

# subject.of.test: JAK1 (Homo sapiens (Human), UniProt P23458)
# experimental.details: JAK1 kinase assay (HTRF)
# Format: biochemical
reported.metric: pEC50
Entry type: numeric. Quantity: pEC50, the -log10 of concentration in molar units.

Some solved entries appear below for comparison.
Provide measured pEC50 value, entry: [2H]C([2H])([2H])C([2H])(O)c1nc2cnc(NC)cc2n1[C@H]1CC[C@H](CC#N)CC1 (stereo partly shown)
8.08

Provide measured pEC50 value, entry: CNc1cc2c(cn1)nc([C@H](C)O)n2[C@H]1CC[C@H](CC#N)CC1
7.35

Provide measured pEC50 value, entry: [2H]C([2H])([2H])Nc1cc2c(cn1)nc([C@@H](C)O)n2[C@H]1CC[C@H](CC#N)CC1
8.46

Now turn to the next molecule.
Provide measured pEC50 value, entry: C[C@@H](O)c1nc2cnc3[nH]ccc3c2n1[C@H]1CC[C@H](C#N)CC1
8.17

* * *

# subject.of.test: CYP1A2 (Homo sapiens (Human), UniProt P05177)
# Sequence (P05177 whole entry): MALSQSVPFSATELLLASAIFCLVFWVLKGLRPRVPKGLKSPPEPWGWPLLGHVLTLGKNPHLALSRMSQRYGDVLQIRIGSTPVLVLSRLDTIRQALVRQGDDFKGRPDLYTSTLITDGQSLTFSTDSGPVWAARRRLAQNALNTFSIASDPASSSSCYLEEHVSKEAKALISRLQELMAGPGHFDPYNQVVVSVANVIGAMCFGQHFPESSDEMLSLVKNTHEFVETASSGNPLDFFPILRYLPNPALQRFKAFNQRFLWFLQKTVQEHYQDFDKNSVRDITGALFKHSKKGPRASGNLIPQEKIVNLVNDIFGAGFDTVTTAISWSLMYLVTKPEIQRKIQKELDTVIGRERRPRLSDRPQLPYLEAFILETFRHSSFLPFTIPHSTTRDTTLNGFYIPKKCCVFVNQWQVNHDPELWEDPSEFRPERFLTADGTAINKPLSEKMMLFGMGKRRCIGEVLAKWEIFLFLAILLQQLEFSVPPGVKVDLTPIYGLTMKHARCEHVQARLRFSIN
# experimental.details: Reversible CYP inhibition, 1A2
# Type: in vitro ADME
reported.metric: IC50

Provide measured IC50 value, entry: C[C@@H](O)c1nc2cnc3[nH]ccc3c2n1[C@H]1CC[C@H](C#N)CC1
> 25 µM

* * *

# experimental.details: Aqueous solubility of crystalline material
# Format: physicochemical
# recorded.conditions: aqueous medium, aqueous buffer, thermodynamic from solid, pH 7.4, crystalline material
Item-by-item account of solubility
// return the numeric value with its unit appended

Provide measured solubility value, entry: C[C@@H](O)c1nc2cnc3[nH]ccc3c2n1[C@H]1CC[C@H](CC#N)CC1 [Example 644 of WO2011086053]
136 µg/mL

Provide measured solubility value, entry: C[C@@H](O)c1nc2cnc3[nH]ccc3c2n1[C@H]1CC[C@H](C#N)CC1 [Example 641 of WO2011086053]
2260 µg/mL

Provide measured solubility value, entry: CNc1cc2c(cn1)nc([C@@H](C)O)n2[C@H]1CC[C@H](CC#N)CC1 [Example 3]
12300 µg/mL

* * *

# experimental.details: Aqueous solubility of crystalline material
# Format: physicochemical
# recorded.conditions: aqueous medium, aqueous buffer, thermodynamic from solid, pH 9.0, crystalline material
reported.metric: solubility (µg/mL)
Give the quantity in µg/mL, number only.

Provide measured solubility value, entry: C[C@@H](O)c1nc2cnc3[nH]ccc3c2n1[C@H]1CC[C@H](C#N)CC1
2280

Provide measured solubility value, entry: CNc1cc2c(cn1)nc([C@@H](C)O)n2[C@H]1CC[C@H](CC#N)CC1
11100

Provide measured solubility value, entry: C[C@@H](O)c1nc2cnc3[nH]ccc3c2n1[C@H]1CC[C@H](CC#N)CC1
9.9

* * *

# subject.of.test: UniProt O60674
# Sequence (O60674 849-1124): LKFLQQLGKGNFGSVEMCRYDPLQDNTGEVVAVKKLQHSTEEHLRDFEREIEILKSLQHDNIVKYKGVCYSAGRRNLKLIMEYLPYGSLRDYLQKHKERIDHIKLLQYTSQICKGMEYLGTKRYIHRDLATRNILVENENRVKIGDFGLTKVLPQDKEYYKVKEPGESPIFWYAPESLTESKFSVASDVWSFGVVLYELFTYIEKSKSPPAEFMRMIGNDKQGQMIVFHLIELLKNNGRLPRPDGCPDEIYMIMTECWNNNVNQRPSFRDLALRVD
# experimental.details: JAK2 kinase assay (HTRF)
# recorded.conditions: ATP at Km (4 μM)
Threshold check on EC50: strictly below 500 nM is rule met; on or above 500 nM is rule not met.

Please indicate whether the reported EC50 of C[C@@H](O)c1nc2cnc3[nH]ccc3c2n1[C@H]1CC[C@H](C#N)CC1 is strictly below 500 nM.
rule met

Please indicate whether the reported EC50 of [2H]C([2H])([2H])C([2H])(O)c1nc2cnc(NC)cc2n1[C@H]1CC[C@H](CC#N)CC1 (stereo partly drawn) is strictly below 500 nM.
rule met

Please indicate whether the reported EC50 of CNc1cc2c(cn1)nc([C@@H](C)O)n2[C@H]1CC[C@H](CC#N)CC1 is strictly below 500 nM.
rule met

Please indicate whether the reported EC50 of CNc1cc2c(cn1)nc([C@H](C)O)n2[C@H]1CC[C@H](CC#N)CC1 is strictly below 500 nM.
rule not met

Please indicate whether the reported EC50 of CNc1cc2c(cn1)nc(C(C)O)n2[C@H]1CC[C@@H](CC#N)CC1 (stereo partly drawn) is strictly below 500 nM.
rule not met

Next:
Please indicate whether the reported EC50 of CNc1cc2c(cn1)nc([C@@H](C)O)n2[C@H]1CC[C@@H](CC#N)CC1 is strictly below 500 nM.
rule not met

Please indicate whether the reported EC50 of C[C@@H](O)c1nc2cnc3[nH]ccc3c2n1[C@H]1CC[C@H](CC#N)CC1 is strictly below 500 nM.
rule met

Please indicate whether the reported EC50 of [2H]C([2H])([2H])Nc1cc2c(cn1)nc([C@@H](C)O)n2[C@H]1CC[C@H](CC#N)CC1 is strictly below 500 nM.
rule met

Please indicate whether the reported EC50 of CNc1cc2c(cn1)nc(C(C)O)n2[C@H]1CC[C@H](CC#N)CC1 (stereo partly drawn) is strictly below 500 nM.
rule not met

Taken from patent US10703751B2.
